- Tested on: MDA-MB-468 breast
- Experimental Details: NCI-60 one-dose screen, 48 h
- Run Parameters: 10 µM
Compounds without any hit were thinned out: in the full panel of roughly 83,000, 20% have a hit. Calls of active or inactive are those of the source. The calls were made as follows: active = growth percent below 10; inactive = the rest.
Respond using exactly one of the listed classes: active, inactive

Please review the following examples before continuing.
1) Cc1ccc2nc(COc3ccc(C(=O)NNC(=S)NCCc4ccccc4)cc3)[nH]c2c1 : inactive
2) COc1ccccc1NCc1ccc(CO)n1-c1ccc(C)cc1 : inactive
3) COc1cnc2c(c1)C(=O)c1c-2n(CCCNCCO)c(=O)c2cc(OC)c(OC)cc12 : active
4) O=C1CCC(N2Cc3cc(NC(=O)COc4ccccc4)ccc3C2=O)C(=O)N1 (stereo not given) : active

Query compound follows.
### Prompt # fetch the recorded call for COc1ccc(CCN2C(=O)/C(=C/c3csc(C#N)n3)SC2=S)cc1OC here
### Response active

====

Exercise: for every item that follows, state its recorded growth.
- Tested on: NCI-H322M lung
- Experimental Details: NCI-60 one-dose screen, 48 h (100 = growth as untreated, 0 = no growth, -100 = all killed)
- Run Parameters: 10 µM
The panel holds about 83,000 compounds, 20% with a hit somewhere; the sample as a whole holds those more often.
Give bare numbers, in %.

Solved entries (count: 2):
1. CC(=O)C1=C(C)NC(SCC(=O)Nc2ccc(S(=O)(=O)Nc3cc(C)on3)cc2)=NC1c1ccccc1 (centres undefined) : 102
2. Cc1ccc(-c2nc3ccc(C(=O)N=Nc4c(O)[nH]c5ccc([N+](=O)[O-])cc45)cc3[nH]2)cc1 : 105

Batch: growth for all items listed.
1. COC(=O)CC1CC1C1Cc2c(nc(N(C)S(C)(=O)=O)nc2C(C)C)-c2ccc(F)cc21 (centres undefined)
2. O=C(Cc1ccc2c(c1)CN(C1CCC(=O)NC1=O)C2=O)NCCc1ccccc1 (centres undefined)

### Response
1: 96.8; 2: 22.5

====

- System: M14 melanoma
- Experimental Details: NCI-60 one-dose screen, 48 h (100 = growth as untreated, 0 = no growth, -100 = all killed)
- Run Parameters: 10 µM
- Protocol: Growth inhibition of the M14 human tumor cell line is measured as a screen for anti-cancer activity. Cells are grown in 96 well plates and exposed to the test compound for 48 hours. Compounds are tested at a single concentration, which is 10^-5 M for most compounds. The reported endpoint is percent growth (GI% or GIPRCNT), where numbers from 0 - 100% represent growth inhibition, and numbers from -100% - 0 represent cell death. For example, a value of 40 represents 60% growth inhibition. […]
About 83,000 compounds went through this panel and 20% of them were active in at least one assay; those are over-represented in the sample as a whole.
Metric: growth (%)
Numbers only, in %.

Consider the worked cases shown below.
1) CC1(c2ccccc2)NC(=O)N(CC(=O)Nc2ccc(C(=O)/C=C/c3ccc(Cl)cc3)cc2)C1=O (configuration not stated) : -26.9
2) CCOC(=O)C1=C(N)N(c2ccccc2)C2=C(C(=O)CC(C)(C)C2)C1c1ccccc1OC (configuration not stated) : 111
3) CN1CCN(c2ccc(C(=O)/C=C/c3ccc(OC(F)F)cc3)cc2)CC1 : 31.6
4) Nc1nnc(-c2c[nH]c3ccc(F)cc23)c(-c2c[nH]c3ncccc23)n1 : 63.5
5) O=C(c1ccc(O)cc1)C1[C@H](c2ccccc2Br)[C@@H](c2ccccc2)NC12C(=O)Nc1ccc(Br)cc12 (some centres not stated) : 54.6
6) CCOc1ccc(Nc2nc3ccccc3nc2Nc2ccc(OCC)cc2)cc1 : 37.6

// for each compound below, give its growth
1. O=C(Nc1nc2ccc([N+](=O)[O-])cc2s1)Nc1ccccc1I
2. CC1(C)CC[C@]2(C(=O)O)CC[C@]3(C)C(=CC[C@@H]4[C@@]5(C)C/C(=C/c6ccncc6)[C@H](O)C(C)(C)[C@@H]5CC[C@]43C)[C@@H]2C1
3. Cc1ccc(C(C)C)cc1NC(=O)c1ccccc1O
4. O=C(Nc1cc(Cl)cc(Cl)c1)Nc1cc(Cl)cc(Cl)c1

### Response
1: 2.29; 2: 61.6; 3: 43.2; 4: -77.9

Dear colleague, could you please provide growth for the compounds listed below?
1. Clc1ccc(/C=N/Nc2ncnc3sc4c(c23)CCN(Cc2ccccc2)C4)cc1
2. CC(=O)Nc1ccc(-c2cn(-c3cccc(C(=O)Nc4cccc(OC(F)(F)F)c4)c3)nn2)cn1
3. NC(=Nc1ccc(OCCCCCCCCn2ccnn2)cc1)c1ccccc1
4. COc1cc(OC(F)(F)F)ccc1C(=O)Nc1sc2c(c1C#N)CCC(=O)C2
5. COc1ccc(/C=C/C(=O)c2ccc(N3CCN(C)CC3)cc2)c(C(F)(F)F)c1
6. CC1=C2C(=C[C@@](C)(CO)[C@@H]2O)/C(=N\N)[C@](C)(O)C12CC2

### Response
-63.2
80.4
18.4
64.4
38.3
5.88
